Each recorded value in this set is attributed to paper PMC9891369.

Target: amyloid-β fibrils (Aβ1–40) (Homo sapiens, UniProt P05067)
Construct: gene APP; synthetic Aβ1–40, fibrillar
Sequence (P05067 672-711): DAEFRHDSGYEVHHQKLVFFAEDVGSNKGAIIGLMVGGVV
Experiment: time-resolved photoluminescence titration, two-site non-cooperative fit
Type: binding
Conditions: read-out: Values ^a
measured.metric: Kd

QUERY: Using the record for [Ru+2].c1ccc(-c2ccccn2)nc1.c1ccc(-c2ccccn2)nc1.c1cnc2c(c1)c1nc3nccnc3nc1c1cccnc12 [[Ru(bpy)2(dpqp)]^2+] , report its Kd.
RESULT: 2200 nM
